- test_system: α4β7 integrin (Homo sapiens (Human), UniProt P13612+P26010)
- Sequence (P13612 34-1032): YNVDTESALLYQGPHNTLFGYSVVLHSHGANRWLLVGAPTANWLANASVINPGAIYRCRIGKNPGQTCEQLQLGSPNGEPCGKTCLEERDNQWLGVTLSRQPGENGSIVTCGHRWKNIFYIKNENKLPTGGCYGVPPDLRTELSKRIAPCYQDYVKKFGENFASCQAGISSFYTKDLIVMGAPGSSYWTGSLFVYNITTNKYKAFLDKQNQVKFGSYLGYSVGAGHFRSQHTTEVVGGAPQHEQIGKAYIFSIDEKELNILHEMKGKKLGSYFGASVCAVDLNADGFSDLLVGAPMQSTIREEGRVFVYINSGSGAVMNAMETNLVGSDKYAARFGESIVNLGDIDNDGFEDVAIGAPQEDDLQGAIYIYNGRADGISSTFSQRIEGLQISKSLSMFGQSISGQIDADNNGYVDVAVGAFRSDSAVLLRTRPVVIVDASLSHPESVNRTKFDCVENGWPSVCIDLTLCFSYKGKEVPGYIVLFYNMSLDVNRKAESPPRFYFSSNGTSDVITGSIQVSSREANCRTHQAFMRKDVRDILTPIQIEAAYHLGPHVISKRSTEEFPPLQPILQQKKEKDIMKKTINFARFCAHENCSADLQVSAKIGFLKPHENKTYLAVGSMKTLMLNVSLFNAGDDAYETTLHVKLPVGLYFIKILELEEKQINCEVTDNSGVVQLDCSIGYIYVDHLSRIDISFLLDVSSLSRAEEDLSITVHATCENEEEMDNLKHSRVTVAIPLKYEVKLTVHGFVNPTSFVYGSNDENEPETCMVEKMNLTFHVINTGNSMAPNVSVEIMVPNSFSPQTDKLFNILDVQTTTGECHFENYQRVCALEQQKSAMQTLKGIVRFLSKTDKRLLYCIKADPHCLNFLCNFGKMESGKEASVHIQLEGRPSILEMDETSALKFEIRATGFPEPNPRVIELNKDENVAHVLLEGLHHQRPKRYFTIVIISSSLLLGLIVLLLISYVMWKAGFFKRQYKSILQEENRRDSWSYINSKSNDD
- Sequence (P26010 20-798): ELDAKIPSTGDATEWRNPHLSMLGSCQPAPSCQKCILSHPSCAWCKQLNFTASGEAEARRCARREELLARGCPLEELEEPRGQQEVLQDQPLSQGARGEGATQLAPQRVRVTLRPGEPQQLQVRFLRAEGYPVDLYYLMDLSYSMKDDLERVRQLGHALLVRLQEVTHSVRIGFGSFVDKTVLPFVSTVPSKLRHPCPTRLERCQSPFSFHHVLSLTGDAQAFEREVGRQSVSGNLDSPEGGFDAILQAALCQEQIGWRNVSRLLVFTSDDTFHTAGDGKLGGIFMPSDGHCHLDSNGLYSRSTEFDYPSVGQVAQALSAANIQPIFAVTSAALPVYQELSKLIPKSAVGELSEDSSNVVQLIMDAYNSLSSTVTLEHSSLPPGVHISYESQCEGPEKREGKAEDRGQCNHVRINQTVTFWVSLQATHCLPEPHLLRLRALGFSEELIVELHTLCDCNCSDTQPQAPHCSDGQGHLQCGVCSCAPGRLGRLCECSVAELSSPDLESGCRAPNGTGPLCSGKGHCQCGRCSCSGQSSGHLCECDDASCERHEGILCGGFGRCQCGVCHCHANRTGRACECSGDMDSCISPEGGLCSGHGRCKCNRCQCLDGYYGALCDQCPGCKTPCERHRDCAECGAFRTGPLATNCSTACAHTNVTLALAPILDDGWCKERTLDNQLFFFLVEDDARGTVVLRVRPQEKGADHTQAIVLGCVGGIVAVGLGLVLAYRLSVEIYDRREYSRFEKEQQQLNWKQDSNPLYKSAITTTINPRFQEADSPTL
- assay_protocol: α4β7 Integrin Cell Capture Assay
- Format: cell-based
- run_parameters: Table 1; capture of α4β7 expressing RPM18866 cells on MadCAM-1 extracellular domain-coated plate
// reported EC50 per item
API: value field is a number in nM; no unit string.

Example entries and their recorded answers appear below.
compound	test_system	units_text	measured_number
CC(C)(O)C#Cc1cc(Cl)c(C(=O)N[C@@H](Cc2ccc(-c3ccc(C#N)cc3Cl)c3ncccc23)C(=O)O)c(Cl)c1	α4β7 integrin (Homo sapiens (Human), UniProt P13612+P26010)	nM	68.7
N#Cc1ccc(-c2ccc(C[C@H](NC(=O)c3c(F)cc(NS(=O)(=O)c4ccc(-c5ccnc(F)c5)cc4)cc3F)C(=O)O)c3cccnc23)c(Cl)c1	α4β7 integrin (Homo sapiens (Human), UniProt P13612+P26010)	nM	2.4

Next item in the queue.
Prompt line: Given CC(O)Cc1cc(F)c(C(=O)N[C@@H](Cc2ccc(-c3ccc(C#N)cc3Cl)c3ncccc23)C(=O)O)c(F)c1 (stereo partly drawn) , state its recorded EC50.
Response line: 56.7

---

- test_system: α4β7 integrin (Homo sapiens (Human), UniProt P13612+P26010)
- assay_protocol: α4β7 Integrin Cell Capture Assay
- Assay type: cell-based
- run_parameters: Table 1; capture of α4β7 expressing RPM18866 cells on MadCAM-1 extracellular domain-coated plate
test_readout: pEC50
By convention, pEC50 is the negative base-10 log of a molar concentration.

Example entries and their recorded answers appear below.
molecule	measured_number
N#Cc1ccc(-c2ccc(C[C@H](NC(=O)c3c(F)cc(C(=O)Nc4ccccc4)cc3F)C(=O)O)c3cccnc23)c(Cl)c1 [Example 26]	7.48
COc1cc(Cl)c(Cl)cc1-c1ccc(C[C@H](NC(=O)c2c(F)cccc2F)C(=O)O)c2cccnc12 [Example 5]	7.76
CC[C@@H](N1CCCc2c1cc(F)c(C(=O)N[C@@H](Cc1ccc(-c3c(C(F)(F)F)cc(C)n(C)c3=O)c3ncccc13)C(=O)O)c2F)C(F)(F)F [Example 146]	9.22
Cc1cc(C)c(-c2ccc(C[C@H](NC(=O)c3c(F)cccc3F)C(=O)O)c3cccnc23)nc1C [Example 11]	7.64
CC[C@H](C)Nc1cc(F)c(C(=O)N[C@@H](Cc2ccc(-c3c(C(F)(F)F)cc(C)n(C)c3=O)c3ncccc23)C(=O)O)c(F)c1 [Example 134]	8.38

Next item in the queue.
Prompt line: What pEC50 appears in the records for this molecule with α4β7 integrin (Homo sapiens (Human), UniProt P13612+P26010)? CC[C@@H](Nc1cc(F)c(C(=O)N[C@@H](Cc2ccc(-c3c(C(F)(F)F)cc(C)n(C)c3=O)c3ncccc23)C(=O)O)c(F)c1)C(F)(F)F [Example 91]
Response line: 9.52

---

- test_system: α4β7 integrin (Homo sapiens (Human), UniProt P13612+P26010)
- assay_protocol: α4β7 Integrin Cell Capture Assay
- Type: cell-based
- run_parameters: Table 1; capture of α4β7 expressing RPM18866 cells on MadCAM-1 extracellular domain-coated plate
// reported EC50 per item
API: value field is a number in nM; no unit string.

Example entries and their recorded answers appear below.
compound	measured_number
CCOCc1cc(OC)c(-c2ccc(CC(NC(=O)c3c(F)cccc3F)C(=O)O)c3ccc(C(F)(F)F)nc23)c(OC)c1 (stereo not drawn)	29.7
CC[C@@H](Nc1cc(F)c(C(=O)N[C@@H](Cc2ccc(-c3c(C(F)(F)F)c4c(n(C)c3=O)CCC4)c3ncccc23)C(=O)O)c(F)c1)C(F)(F)F	0.6
CN(C)c1cccnc1-c1ccc(C[C@H](NC(=O)c2c(F)cc(N3CCOC[C@@H]3C(F)(F)F)cc2F)C(=O)O)c2cccnc12	4.1
Cc1cc(Cl)c(-c2ccc(C[C@H](NC(=O)c3c(F)cc(N4CCOC[C@@H]4C(F)(F)F)cc3F)C(=O)O)c3cccnc23)c(=O)n1C	0.7
N#Cc1ccc(-c2ccc(C[C@H](NC(=O)c3c(Cl)cc(F)cc3Cl)C(=O)O)c3cccnc23)c(Cl)c1	48.5

Prompt line: What EC50 appears in the records for this compound with α4β7 integrin (Homo sapiens (Human), UniProt P13612+P26010)? N#Cc1ccc(-c2ccc(C[C@H](NC(=O)c3c(F)cc(N4CCC4C(F)(F)F)cc3F)C(=O)O)c3cccnc23)c(Cl)c1 (stereo partly drawn)
Response line: 134

Prompt line: Please give the result for `Cc1cc(C(F)(F)F)c(-c2ccc(C[C@H](NC(=O)c3c(F)cc(N4CCOC[C@@H]4CC(F)(F)F)cc3F)C(=O)O)c3cccnc23)c(=O)n1C` too.
Response line: 0.8

Prompt line: Please give the result for `N#Cc1ccc(-c2ccc(C[C@H](NC(=O)c3c(F)cc(N4CCCC[C@@H]4C(F)(F)F)cc3F)C(=O)O)c3cccnc23)c(Cl)c1` too.
Response line: 80.4
